- studyTarget: 1R CID S1058N
- experimentNotes: ITC; iTC200, 25°C, 20 mM sodium phosphate, pH 7.4, 150 mM NaCl; both partners dialysed against the same buffer
pKd: −log10 of the molar value.
readoutKind: pKd

>>> result("IPPNALQDLLRTLRSPSSPQQQQQVLNILKSNPQLMAAFIKQRAAKYQ (domain or fragment, modifications not checked) [1R/2R NCBD]")
6.66
